biological target: alpha1B adrenergic receptor (rat liver) (Rattus norvegicus); assay: [3H]-prazosin binding in rat liver
Sequence (P15823 whole entry): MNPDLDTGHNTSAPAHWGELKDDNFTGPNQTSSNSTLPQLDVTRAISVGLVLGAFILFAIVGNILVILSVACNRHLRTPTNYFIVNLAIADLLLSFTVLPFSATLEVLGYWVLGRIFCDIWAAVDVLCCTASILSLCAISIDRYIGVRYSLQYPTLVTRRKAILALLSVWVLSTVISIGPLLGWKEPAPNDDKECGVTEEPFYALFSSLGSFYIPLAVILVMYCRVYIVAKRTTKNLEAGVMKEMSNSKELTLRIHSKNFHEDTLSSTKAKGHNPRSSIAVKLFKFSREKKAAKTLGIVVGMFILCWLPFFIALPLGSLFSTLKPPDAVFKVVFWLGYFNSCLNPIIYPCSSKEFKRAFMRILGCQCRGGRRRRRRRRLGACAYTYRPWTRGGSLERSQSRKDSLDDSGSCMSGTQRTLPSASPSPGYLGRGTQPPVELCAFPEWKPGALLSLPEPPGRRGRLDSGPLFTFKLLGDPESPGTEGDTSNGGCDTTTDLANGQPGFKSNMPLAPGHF
Structures can show the parent of a compound that is named as a salt.
Quantity name: IC50 (nM)

1. COc1cc2nc(N3CCC(c4cccs4)CC3)nc(N)c2cc1OC    6
2. O=C(c1ccc(F)cc1)C1CCN(CCn2c(=O)[nH]c3ccccc3c2=O)CC1 [Ketanserine, reference compound]    29.9
3. COc1cc2nc(N3CCC(c4ccc(C)o4)CC3)nc(N)c2cc1OC    2.1

1: COc1cc2nc(N3CCC(c4cc5ccccc5o4)CC3)nc(N)c2cc1OC
2: COc1cc2nc(N3CCC(c4ccccn4)CC3)nc(N)c2cc1OC [Compound 7, (hydrochloride)]
QUERY: Pick one: 1 or 2 . Which one has the lower reported IC50? State the label of the item chosen.
RESULT: 1

Reference source for all entries: patent US5985885A
